experimentalTarget: Gal(b1-3)GlcNAc(a1-6)Gal(b1-4)GlcNAc
assayOverview: glycan array binding signal (z-score within array); higher = stronger binding
measurementParameters: glycan notation: IUPAC condensed, linker removed
Only a selection was taken, and the strongest signals are over-represented in it overall.
measuredEndpoint: glycan array binding signal (z-score)

Recorded glycan array binding signal (z-score) (binder Cohesin-mDCIR (Macaca mulatta) (protein) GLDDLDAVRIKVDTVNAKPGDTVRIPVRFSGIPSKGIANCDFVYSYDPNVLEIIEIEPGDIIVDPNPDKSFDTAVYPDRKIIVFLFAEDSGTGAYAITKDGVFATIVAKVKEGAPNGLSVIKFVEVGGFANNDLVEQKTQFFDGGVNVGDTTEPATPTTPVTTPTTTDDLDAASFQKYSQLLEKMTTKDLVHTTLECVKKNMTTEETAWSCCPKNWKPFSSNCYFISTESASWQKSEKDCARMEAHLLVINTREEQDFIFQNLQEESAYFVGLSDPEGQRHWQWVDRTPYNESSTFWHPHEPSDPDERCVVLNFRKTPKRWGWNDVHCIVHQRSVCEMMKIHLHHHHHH ): -0.186

Recorded glycan array binding signal (z-score) (binder LlpA (Arthrobacter sp) (protein) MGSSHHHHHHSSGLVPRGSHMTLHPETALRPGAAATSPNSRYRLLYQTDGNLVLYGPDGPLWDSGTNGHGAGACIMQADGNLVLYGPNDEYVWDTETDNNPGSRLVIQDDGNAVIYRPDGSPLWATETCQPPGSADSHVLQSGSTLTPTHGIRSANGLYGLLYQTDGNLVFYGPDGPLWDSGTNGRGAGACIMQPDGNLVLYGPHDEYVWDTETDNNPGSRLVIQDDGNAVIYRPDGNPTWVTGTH ): -0.211

# input for lookup
Recorded glycan array binding signal (z-score) (binder AT1G15820(NC) (Arabidopsis thaliana) (protein) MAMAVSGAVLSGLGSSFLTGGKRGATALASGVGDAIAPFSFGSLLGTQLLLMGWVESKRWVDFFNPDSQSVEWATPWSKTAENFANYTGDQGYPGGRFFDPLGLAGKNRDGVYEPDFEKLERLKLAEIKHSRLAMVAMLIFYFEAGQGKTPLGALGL ): -0.36
